SI^3 (CC50 HepG2/IC50 T. cruzi): recorded values
Tested on: intracellular T. cruzi Tulahuen LacZ amastigotes
assay: microbe, parasite or virus in culture
Assay type: cell-based, Trypanosoma cruzi
applied.conditions: selectivity index
experimental.endpoint: SI^3 (CC50 HepG2/IC50 T. cruzi)

C=C1[C@@H](C)[C@H]2[C@H](Cc3ccccc3)NC(=O)[C@]23OC(=O)/C=C/C(=O)CCC[C@@H](C)C/C=C/[C@H]3[C@@H]1O = 6.99
C=C1[C@@H](C)[C@H]2[C@H](Cc3ccccc3)NC(=O)[C@]23[C@H](OC(C)=O)/C=C/[C@@](C)(O)C(=O)[C@@H](C)C/C=C/[C@H]3[C@@H]1O = 6.11
CC(=O)OC1C=CC(C)(O)C(=O)C(C)CC=CC2C(O)C(C)=C(C)C3C(Cc4ccccc4)NC(=O)C123 (stereo not shown) = 2.19
C=C1[C@@H](C)[C@H]2[C@H](Cc3ccccc3)NC(=O)[C@]23OC(=O)/C=C/[C@H](O)CCC[C@@H](C)C/C=C/[C@H]3[C@@H]1O = 2.74

----------
assay: in vitro
Format: in vitro ADME
applied.conditions: human, pH 7.4; 0.5 μM compound, 0.25 mg/mL microsomes; read-out: Human liver microsome (HLM) CLint(mic)
microsomal CLint listing for selected molecules.
experimental.endpoint: microsomal CLint (µL/min/mg)

C=C1[C@@H](C)[C@H]2[C@H](Cc3ccccc3)NC(=O)[C@]23OC(=O)/C=C/[C@H](O)CCC[C@@H](C)C/C=C/[C@H]3[C@@H]1O [Cytochalasin B] = 217
C=C1[C@@H](C)[C@H]2[C@H](Cc3ccccc3)NC(=O)[C@]23OC(=O)/C=C/C(=O)CCC[C@@H](C)C/C=C/[C@H]3[C@@H]1O [Cytochalasin A] = 7.86
CC(=O)OC1C=CC(C)(O)C(=O)C(C)CC=CC2C(O)C(C)=C(C)C3C(Cc4ccccc4)NC(=O)C123 (stereo not drawn) [Cytochalasin C] = 144

----------
assay: in vitro
Format: in vitro ADME
applied.conditions: PAMPA; donor pH 6.5, acceptor pH 7.4, 5 h, 37°C; read-out: PAMPA permeability Mean Pe
experimental.endpoint: Papp

C=C1[C@@H](C)[C@H]2[C@H](Cc3ccccc3)NC(=O)[C@]23OC(=O)/C=C/C(=O)CCC[C@@H](C)C/C=C/[C@H]3[C@@H]1O [Cytochalasin A] = 27.1 ×10⁻⁶ cm/s
CC(=O)OC1C=CC(C)(O)C(=O)C(C)CC=CC2C(O)C(C)=C(C)C3C(Cc4ccccc4)NC(=O)C123 (stereo not shown) [Cytochalasin C] = 14.8 ×10⁻⁶ cm/s
C=C1[C@@H](C)[C@H]2[C@H](Cc3ccccc3)NC(=O)[C@]23[C@H](OC(C)=O)/C=C/[C@@](C)(O)C(=O)[C@@H](C)C/C=C/[C@H]3[C@@H]1O [Cytochalasin D] = 8.74 ×10⁻⁶ cm/s
C=C1[C@@H](C)[C@H]2[C@H](Cc3ccccc3)NC(=O)[C@]23OC(=O)/C=C/[C@H](O)CCC[C@@H](C)C/C=C/[C@H]3[C@@H]1O [Cytochalasin B] = 15.8 ×10⁻⁶ cm/s

----------
assay: in vitro
Type: in vitro ADME
applied.conditions: CD1, mouse, pH 7.4; 0.5 μM compound, 0.25 mg/mL microsomes; read-out: Mouse liver microsome (MsLM) CLint(mic)
microsomal CLint by entry:
experimental.endpoint: microsomal CLint (µL/min/mg)

C=C1[C@@H](C)[C@H]2[C@H](Cc3ccccc3)NC(=O)[C@]23OC(=O)/C=C/C(=O)CCC[C@@H](C)C/C=C/[C@H]3[C@@H]1O [Cytochalasin A] = 167
C=C1[C@@H](C)[C@H]2[C@H](Cc3ccccc3)NC(=O)[C@]23OC(=O)/C=C/[C@H](O)CCC[C@@H](C)C/C=C/[C@H]3[C@@H]1O [Cytochalasin B] = 62.9
C=C1[C@@H](C)[C@H]2[C@H](Cc3ccccc3)NC(=O)[C@]23[C@H](OC(C)=O)/C=C/[C@@](C)(O)C(=O)[C@@H](C)C/C=C/[C@H]3[C@@H]1O [Cytochalasin D] = 163

Values from paper PMC9529094
